Tested on: Plasmodium berghei
Assay: Screen against P. berghei liver stage (PbLuc), transformed with Luciferase, at 10uM
Type: functional, HepG2
Conditions: tested at 10 uM
The campaign covered roughly 69,000 compounds. About 8,600 (12%) showed an effect of 50% or more. For the sample, strong results were picked, then their nearest neighbours and some compounds at random.
readout: INHIBITION
Please append the unit to your numeric answer.

Here are 4 molecules together with their reported answers.
CN1C(=O)COc2ccc(C(=O)Cn3cnc4ccsc4c3=O)cc21; 47.9%
CCc1ncc2c(n1)CN(Cc1nc(-c3ccoc3)no1)CC2; 27.8%
CN1C(=O)CC(c2ccccc2)C12CCN(CC1CC1)CC2 (stereo not given); -40.5%
CCC(CC)C(=O)N1CCN(Cc2cc(-c3ccncc3)nn2C)CC1; -8.12%

Data request, read-out INHIBITION, for CN(C)c1cc(CNC(=O)c2ccccc2S(C)(=O)=O)ccn1
-19.4%

Data request, read-out INHIBITION, for Cc1ccc(C(NC(=O)CCCN2CCCCC2)C(=O)O)cc1 (stereo not given)
-18.9%

Data request, read-out INHIBITION, for Cn1c(CN2CCCC(Cn3cncn3)C2)nc2ccccc21 (stereo not given)
33.1%

Data request, read-out INHIBITION, for O=C(c1cc[nH]n1)N1CCCC1c1cc(Nc2ccccn2)n[nH]1 (stereo not given)
-20.2%

Data request, read-out INHIBITION, for NC(=O)C1(CCCc2ccncc2)CCCN1 (stereo not given)
1.5%

Data request, read-out INHIBITION, for CNC(=O)c1ccc(OC2CCN(S(C)(=O)=O)CC2)c(Cl)c1
-22.1%

Data request, read-out INHIBITION, for Cc1nc(C)n(C2CCCN(C(=O)CCc3cscn3)C2)n1 (stereo not given)
37.9%

Data request, read-out INHIBITION, for COc1cccc(C(=O)NS(=O)(=O)c2cncc(Br)c2)c1OC
15.1%

Data request, read-out INHIBITION, for O=C(c1cc(F)cc(F)c1)N1CCC(O)(C(F)(F)F)CC1
25.4%

Data request, read-out INHIBITION, for O=C(O)[C@@H]1CN(C(=O)CSCC2CC2)C[C@H]1c1ccncc1
-8.7%

Data request, read-out INHIBITION, for Cc1c(OCC(=O)NCc2ccccc2)c(=O)ccn1C
57.3%

Data request, read-out INHIBITION, for Cc1cnc(-c2nc(C3CCN(Cc4ccccc4O)CC3)no2)cn1
23.7%

Data request, read-out INHIBITION, for COCC(=O)N1CCCCC1c1nc(N(C)C)ncc1-c1cc(C)no1 (stereo not given)
17.435%

Data request, read-out INHIBITION, for CN1[C@@H](C(=O)NCC2CC2)C[C@@H]2CN(Cc3ccoc3)C[C@@H]21
1.34%

Data request, read-out INHIBITION, for Cc1cc(CN2CCN(C(=O)NCc3csc(C)n3)CC2)no1
26.4%

Data request, read-out INHIBITION, for CS(=O)(=O)N1CCC(Oc2ccc(C(=O)N3CCSCC3)cc2Cl)CC1
63.3%

Values compiled from ChEMBL document CHEMBL4513216.
